pIC50 values, listed per item
# assay target: rat NaPi-2b (Rattus norvegicus)
# Sequence (Q9JJ09 1-695): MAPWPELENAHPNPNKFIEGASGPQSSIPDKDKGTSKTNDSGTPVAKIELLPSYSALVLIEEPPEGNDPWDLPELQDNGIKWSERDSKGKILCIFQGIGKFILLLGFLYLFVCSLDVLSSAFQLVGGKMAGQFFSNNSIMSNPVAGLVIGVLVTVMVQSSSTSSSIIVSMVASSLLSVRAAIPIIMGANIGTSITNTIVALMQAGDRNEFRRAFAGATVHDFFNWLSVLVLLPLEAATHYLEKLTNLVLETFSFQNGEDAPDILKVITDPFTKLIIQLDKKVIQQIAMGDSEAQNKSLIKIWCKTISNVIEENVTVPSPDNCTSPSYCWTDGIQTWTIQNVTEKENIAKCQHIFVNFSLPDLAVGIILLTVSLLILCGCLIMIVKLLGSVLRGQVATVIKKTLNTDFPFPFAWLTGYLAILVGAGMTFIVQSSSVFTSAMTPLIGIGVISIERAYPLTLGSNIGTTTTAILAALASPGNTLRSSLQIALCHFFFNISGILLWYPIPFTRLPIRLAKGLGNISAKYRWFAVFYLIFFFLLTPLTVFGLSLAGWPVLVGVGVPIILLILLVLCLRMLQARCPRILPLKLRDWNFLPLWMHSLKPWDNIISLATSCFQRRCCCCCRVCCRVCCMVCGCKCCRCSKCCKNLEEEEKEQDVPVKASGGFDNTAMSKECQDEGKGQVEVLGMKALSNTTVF
# protocol notes: Sodium-dependent phosphate uptake of Xenopus oocytes which expressed NaPi-2b (32P)
# experimental setup: Xenopus oocytes expressing rat NaPi-2b, 32P radioactive phosphorus; read-out: IC50 (phosphate uptake inhibitory activity)
Convention used: pIC50 is expressed as -log10 of the molar concentration.

>>> df
                                 cpd_smiles                     assay_target  result_value
0  Cc1ccc(/C=N/NC(=O)c2c(C)csc2NC(=O)c2cccc(CN(C)C)c2)cc1C  rat NaPi-2b (Rattus norvegicus)          5.23

-- ask Let me know recorded pIC50 for `COc1cc(OC)cc(C(=O)Nc2ccc(Br)cc2C(=O)N/N=C/c2ccc(Cl)cc2)c1` , thanks.
-- reply 6.24

-- ask Please indicate pIC50 recorded for `CN(C)CCn1nnnc1SCc1cccc(C(=O)Nc2ccc(Cl)cc2C(=O)N/N=C/c2cccc(O)c2)c1`
-- reply 4.63
